- target-entity: Sodium-dependent serotonin transporter (Rattus norvegicus, UniProt P31652)
- Sequence (P31652 whole entry): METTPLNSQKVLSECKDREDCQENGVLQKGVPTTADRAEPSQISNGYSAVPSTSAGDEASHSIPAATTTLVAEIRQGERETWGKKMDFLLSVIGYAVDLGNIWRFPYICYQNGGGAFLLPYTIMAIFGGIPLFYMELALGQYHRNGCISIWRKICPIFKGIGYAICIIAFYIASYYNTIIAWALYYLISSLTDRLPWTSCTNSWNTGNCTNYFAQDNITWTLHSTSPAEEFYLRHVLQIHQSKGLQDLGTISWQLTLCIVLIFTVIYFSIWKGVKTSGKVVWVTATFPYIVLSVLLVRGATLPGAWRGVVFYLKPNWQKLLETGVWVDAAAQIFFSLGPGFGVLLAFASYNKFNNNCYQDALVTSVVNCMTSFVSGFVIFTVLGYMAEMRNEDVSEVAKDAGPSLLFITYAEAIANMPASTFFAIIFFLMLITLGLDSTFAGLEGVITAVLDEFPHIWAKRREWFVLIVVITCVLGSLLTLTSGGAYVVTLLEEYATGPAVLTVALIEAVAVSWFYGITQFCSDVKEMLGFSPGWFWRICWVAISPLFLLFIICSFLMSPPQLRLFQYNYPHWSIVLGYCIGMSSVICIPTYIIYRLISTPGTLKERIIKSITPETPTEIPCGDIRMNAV
Catalogue of compounds with associated Ki
Just the number please, in nM, no unit attached.

Below are worked cases with known answers.
- CN(CCCc1c[nH]c2ccc(F)cc12)[C@H]1COc2c(F)ccc(C(N)=O)c2C1: 14.8
- CCN(CCCCc1c[nH]c2ccc(F)cc12)C1COc2c(F)ccc(C(N)=O)c2C1 (racemic): 0.4
- CCN(CCCc1c[nH]c2ccc(F)cc12)[C@@H]1COc2c(F)ccc(C(N)=O)c2C1: 3.6
- CCCN(CCc1c[nH]c2ccc(F)cc12)C1COc2c(F)ccc(C(N)=O)c2C1 (racemic): 88
- NC(=O)c1ccc(F)c2c1CC(N(CCCCc1c[nH]c3ccc(F)cc13)CC1CC1)CO2 (racemic): 3.3
- NC(=O)c1ccc(F)c2c1C[C@@H](NCCCc1c[nH]c3ccc(F)cc13)CO2: 20.4

Q: Find Ki (Sodium-dependent serotonin transporter (Rattus norvegicus, UniProt P31652)) for the entry NC(=O)c1ccc(F)c2c1CC(N(CCCc1c[nH]c3ccc(F)cc13)C1CCC1)CO2 (racemic)
Ans: 3

Q: Find Ki (Sodium-dependent serotonin transporter (Rattus norvegicus, UniProt P31652)) for the entry CCN(CCc1c[nH]c2ccc(F)cc12)C1COc2c(F)ccc(C(N)=O)c2C1 (racemic)
Ans: 60.2

Q: Find Ki (Sodium-dependent serotonin transporter (Rattus norvegicus, UniProt P31652)) for the entry NC(=O)c1ccc(F)c2c1C[C@@H](N(CCCc1c[nH]c3ccc(F)cc13)C1CCC1)CO2
Ans: 1.5
